B1: ANKRD17 (parent)
chain: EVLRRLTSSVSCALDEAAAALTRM

Variants of: B1
Experiment: protein stability index of a GFP-peptide fusion (GPS, HEK-293T) (PSI 1-6); higher = more stable;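 further: lentivirally expressed fusions sorted by FACS into six bins by GFP to DsRed ratio, PSI derived from sequencing read proportions per bin multiplied by bin number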
Details: c terminus: a fixed tail appended
ENDPOINT: protein stability index
The reply should be a number, written without any unit.

The examples below pair each entry with its known result.
{"MUTATIONS": "A13N", "protein stability index": 1.69}
{"MUTATIONS": "S8K", "protein stability index": 2.39}
{"MUTATIONS": "A18G", "protein stability index": 1.85}
{"MUTATIONS": "C12W", "protein stability index": 2.27}
{"MUTATIONS": "S11E", "protein stability index": 1.92}
{"MUTATIONS": "A13R", "protein stability index": 2.06}

stdin: What does the record list as protein stability index for `L14K` ?
stdout: 1.79

stdin: Give the measured protein stability index of `S11D` .
stdout: 2.18

stdin: Find the recorded protein stability index belonging to `S9Y` and report it.
stdout: 1.58

stdin: What does the data say about its protein stability index? Entry: `V2H`
stdout: 3.64

stdin: I am curious: what protein stability index value has been reported for `T7L` ?
stdout: 2.95

stdin: Quick check: protein stability index of `R23M` ?
stdout: 1.59
